experiment: Metabolic stability in human liver microsome assessed as half life at 20 umol/L preincubated for 5 mins followed by NADPH addition measured upto 60 mins by LC-MS/MS analysis; type: ADME; settings: liver microsomes, dose 20 µmol/L, time < 65 min
PROPERTY NAME: half-life at 20 µM (h)
Give the number; h is assumed, so skip it.

Challenge: Value lookup for half-life at 20 µM; key = O=C(CCl)NC1CCN(c2cnc(-c3ccccc3)c(-c3ccccc3)n2)CC1
Response given: 1.1

----------
biological target: S-phase kinase-associated protein 2/Cyclin-dependent kinases regulatory subunit 1/S-phase kinase-associated protein 1 (Homo sapiens, UniProt Q13309); assay: Inhibition of GST-tagged Skp2/Skp1 (unknown origin)/His6-tagged Cks1 (unknown origin) interaction preincubated with Skp2/Skp1 for 10 mins followed by Cks1 addition measured after 20 mins by HTRF assay; format: protein assay
Sequence (P61024 whole entry, one chain of several): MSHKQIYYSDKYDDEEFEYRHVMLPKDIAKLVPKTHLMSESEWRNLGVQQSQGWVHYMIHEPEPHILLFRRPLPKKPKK
Sequence (P63208 whole entry, one chain of several, further chain): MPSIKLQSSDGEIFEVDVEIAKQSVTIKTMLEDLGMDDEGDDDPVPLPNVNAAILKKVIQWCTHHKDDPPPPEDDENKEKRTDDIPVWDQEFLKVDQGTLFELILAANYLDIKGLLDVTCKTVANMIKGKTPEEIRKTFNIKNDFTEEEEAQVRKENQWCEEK
pIC50: −log10 of the molar value.
PROPERTY NAME: pIC50

Sample answers from the record:
> print(dat)
                                   molecule  property.name  measurement
1          Clc1cnc(-c2ccccc2)c(-c2ccccc2)n1          pIC50       < 4.30
2  CC(C)(C)C(=O)NCC1CCN(c2cnc(-c3ccc(C(F)(F)F)cc3)c(-c3ccccc3)n2)CC1          pIC50         4.96
3  C=Cc1ncc(N2CCC(CNC(=O)C(C)(C)C)CC2)nc1-c1ccccc1          pIC50       < 4.60
4  NC1CCN(c2cnc(-c3ccccc3)c(-c3ccccc3)n2)CC1          pIC50         4.60
5  C=CC(=O)N1CCN(c2cnc(-c3ccccc3)c(-c3ccccc3)n2)CC1          pIC50       < 4.60

Now for another entry.
Challenge: Could you share which pIC50 value was measured for CC(C)(C)OC(=O)N1CCCN(c2cnc(-c3ccccc3)c(-c3ccccc3)n2)CC1 ?
Response given: 4.61

----------
assay: AUC (infinity) in plasma of NOD-SCID mouse model xenografted with human PC-3 cells at 25 mg/kg, IG measured upto 48 hrs by LC-MS/MS analysis; type: ADME, organism-based; set-up: time < 48 hrs, dose 25 mg/kg, route ig; conditions: po
PROPERTY NAME: AUC(0-inf) (ng·h/mL)
# unit: ng·h/mL | format: bare number

Challenge: Request the reported AUC(0-inf) associated with O=C(CCl)NC1CCN(c2cnc(-c3ccccc3)c(-c3ccccc3)n2)CC1
Response given: 3550

----------
experiment: MRTlast in tumor of NOD-SCID mouse model xenografted with human PC-3 cells at 25 mg/kg, IG measured upto 48 hrs by LC-MS/MS analysis; format: ADME, organism-based, Neoplasm; settings: po
PROPERTY NAME: MRT last at 48 h (h)
Field format: number, assumed h, no unit text.

Challenge: What does the record list as MRT last at 48 h for O=C(CCl)NC1CCN(c2cnc(-c3ccccc3)c(-c3ccccc3)n2)CC1 ?
Response given: 9.9

----------
assay: Half life in tumor of NOD-SCID mouse model xenografted with human PC-3 cells at 25 mg/kg, IG measured upto 48 hrs by LC-MS/MS analysis; type: ADME, organism-based, Neoplasm; details: po
PROPERTY NAME: half-life (h)
Reply with just the number (in h).

Challenge: Tell me the measured half-life of O=C(CCl)NC1CCN(c2cnc(-c3ccccc3)c(-c3ccccc3)n2)CC1 , please.
Response given: 12.6

----------
Measured IC50 by item
target: S-phase kinase-associated protein 2/Cyclin-dependent kinases regulatory subunit 1/S-phase kinase-associated protein 1 (Homo sapiens, UniProt Q13309); assay: Inhibition of GST-tagged Skp2/Skp1 (unknown origin)/His6-tagged Cks1 (unknown origin) interaction preincubated with Skp2/Skp1 for 10 mins followed by Cks1 addition measured after 20 mins by HTRF assay; assay type: protein assay
Please respond with the number in µM and leave the unit unwritten.

Please review the following examples before continuing.
> print(dat)
                                 cpd.smiles  measurement
1  O=C(CCl)N1CCN(c2cnc(-c3ccccc3)c(-c3ccccc3)n2)CC1          9.9
2  O=C(NCC1CCN(c2cnc(-c3ccccc3)c(-c3ccccc3)n2)CC1)C(F)(F)F         15.6
3  CC(=O)N1CCN(c2cnc(-c3ccccc3)c(-c3ccccc3)n2)CC1         17.9
4  CC(C)(C)C(=O)NCC1CCN(c2cnc(-c3ccco3)c(-c3ccccc3)n2)CC1         8.12
5  CCC(=O)NCC1CCN(c2cnc(-c3ccccc3)c(-c3ccccc3)n2)CC1          2.8

Next item in the queue.
Challenge: Can you share its IC50? I mean this compound: CN(CCNC(=O)OC(C)(C)C)c1cnc(-c2ccccc2)c(-c2ccccc2)n1
Response given: 20.2

----------
tested on: NCI-N87; assay: Antitumor activity against human NCI-N87 cells with low Skp2 expression assessed as cell growth inhibition incubated for 72 hrs by MTT assay; type: functional, cell-based; conditions: NCI-N87, 72 h
PROPERTY NAME: IC50 (µM)
API: value field is a number in µM; no unit string.

Challenge: Name the reported IC50 value associated with the molecule O=C(CCl)NC1CCN(c2cnc(-c3ccccc3)c(-c3ccccc3)n2)CC1
Response given: 15.5

----------
target: S-phase kinase-associated protein 2 (Homo sapiens, UniProt Q13309); assay: Inhibition of Skp2 in human MGC-803 cells treated with shRNA 5'-GGACCTATCGAACTCAGTTAT-3' incubated upto 48 hrs by Western blot analysis (reference value: 7 +/- 1.1 microM); assay type: cell-based
Sequence (Q13309 whole entry): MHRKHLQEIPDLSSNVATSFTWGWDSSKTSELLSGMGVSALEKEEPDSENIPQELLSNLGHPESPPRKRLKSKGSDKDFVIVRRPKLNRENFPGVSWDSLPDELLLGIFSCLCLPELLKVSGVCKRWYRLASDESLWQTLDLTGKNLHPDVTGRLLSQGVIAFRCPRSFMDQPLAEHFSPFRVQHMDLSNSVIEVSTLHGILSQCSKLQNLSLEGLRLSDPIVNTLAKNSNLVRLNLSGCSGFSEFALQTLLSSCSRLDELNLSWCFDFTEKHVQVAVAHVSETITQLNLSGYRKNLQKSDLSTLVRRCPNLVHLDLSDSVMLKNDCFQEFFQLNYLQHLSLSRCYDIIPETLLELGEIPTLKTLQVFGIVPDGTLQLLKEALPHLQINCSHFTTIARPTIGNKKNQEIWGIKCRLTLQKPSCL
PROPERTY NAME: IC50
Quick note: number first, unit second.

Challenge: # IC50 lookup, item O=C(CCl)NC1CCN(c2cnc(-c3ccccc3)c(-c3ccccc3)n2)CC1
Response given: 39.2 µM

----------
tested on: PC-3; test: Antitumor activity against human PC-3 cells assessed as cell growth inhibition incubated for 72 hrs by MTT assay; type: functional, cell-based; conditions: PC-3, 72 h
PROPERTY NAME: pIC50
Scale: negative log10 of molar concentration, which is what pIC50 denotes.

> print(dat)
                                 cpd.smiles  measurement
1  O=C(CCl)NC1CCN(c2cnc(-c3ccccc3)c(-c3ccccc3)n2)CC1         5.32
2  O=C(NCC1CCN(c2cnc(-c3ccccc3)c(-c3ccccc3)n2)CC1)c1ccccc1         4.15
3  O=C(NCC1CCN(c2cnc(-c3ccccc3)c(-c3ccccc3)n2)CC1)N1CCOCC1         4.54
4  CC(C)(C)OC(=O)N1CCN(c2cnc(-c3ccccc3)c(-c3ccccc3)n2)CC1         4.02

Now for a further compound.
Challenge: Any idea what pIC50 came out for CCC(=O)NCC1CCN(c2cnc(-c3ccccc3)c(-c3ccccc3)n2)CC1 on PC-3?
Response given: 4.66

----------
test: Metabolic stability in mouse liver S9 fraction assessed as half life at 20 umol/L preincubated for 5 mins followed by NADPH addition measured upto 60 mins by LC-MS/MS analysis; type: ADME, subcellular; conditions: dose 20 µmol/L, time < 65 min
PROPERTY NAME: half-life at 20 µM
Don't forget the unit after the number, please.

Challenge: # input compound: O=C(CCl)NC1CCN(c2cnc(-c3ccccc3)c(-c3ccccc3)n2)CC1 ; wanted: its half-life at 20 µM
Response given: 16.5 min

----------
tested on: NCI-H1299; assay: Antitumor activity against human NCI-H1299 cells assessed as cell growth inhibition incubated for 72 hrs by MTT assay; assay type: functional, cell-based; settings: NCI-H1299, 72 h
Mark each entry Yes if its IC50 sits below 50 µM, and No for all others.

> print(dat)
                                 cpd.smiles  target.or.test.system  cat
1  CC(C)(C)C(=O)NCC1CCN(c2cnc(-c3ccc(CO)cc3)c(-c3ccccc3)n2)CC1              NCI-H1299   No
2  CCC(=O)NCC1CCN(c2cnc(-c3ccccc3)c(-c3ccccc3)n2)CC1              NCI-H1299   No
3  CC(C)(C)OC(=O)N1CCN(c2cnc(-c3ccccc3)c(-c3ccccc3)n2)CC1              NCI-H1299   No
4  CC(C)(C)OC(=O)NCC1CCN(c2cnc(-c3ccccc3)c(-c3ccccc3)n2)CC1              NCI-H1299  Yes
5  O=C(NCC1CCN(c2cnc(-c3ccccc3)c(-c3ccccc3)n2)CC1)c1ccccc1              NCI-H1299   No
6  O=C(NC1CCN(c2cnc(-c3ccccc3)c(-c3ccccc3)n2)CC1)c1ccccc1              NCI-H1299   No
7  O=C(NCC1CCN(c2cnc(-c3ccccc3)c(-c3ccccc3)n2)CC1)N1CCOCC1              NCI-H1299  Yes
8  O=C(CCl)NC1CCN(c2cnc(-c3ccccc3)c(-c3ccccc3)n2)CC1              NCI-H1299  Yes

Challenge: I wonder whether CC(C)(C)C(=O)NCC1CCN(c2cnc(-c3ccccc3)c(-c3ccccc3)n2)CC1 has IC50 below 50 µM. Can you tell?
Response given: No
